Let's go through some recorded pIC50 values for human Factor XIa (Homo sapiens) together.
pIC50: −log10 of the molar value.

CC[C@@H](NC(=O)N1C(=O)[C@H](Cc2ccnc(N)c2)[C@H]1C(=O)N(C)c1cc(C)nc(C)c1)c1cccc(Cl)c1: 7.00 to 8.00
CC[C@@H](NC(=O)N1C(=O)[C@H](Cc2ccnc(N)c2)[C@H]1C(=O)N(C)c1ccncc1)C1CCCCC1: > 8.00

// next item, pIC50 requested
Qu. Give pIC50 (human Factor XIa (Homo sapiens)) of the following compound: `C[C@@H](NC(=O)N1C(=O)[C@H](Cc2ccnc(N)c2)[C@H]1C(=O)N(C)c1ccccc1)c1cccnc1`
Ans. 7.00 to 8.00
